- system-name: hSTING (Homo sapiens, UniProt Q86WV6, G230A/H232R/R293Q/R71H)
- Sequence (Q86WV6 whole entry R71H/G230A/H232R/R293Q): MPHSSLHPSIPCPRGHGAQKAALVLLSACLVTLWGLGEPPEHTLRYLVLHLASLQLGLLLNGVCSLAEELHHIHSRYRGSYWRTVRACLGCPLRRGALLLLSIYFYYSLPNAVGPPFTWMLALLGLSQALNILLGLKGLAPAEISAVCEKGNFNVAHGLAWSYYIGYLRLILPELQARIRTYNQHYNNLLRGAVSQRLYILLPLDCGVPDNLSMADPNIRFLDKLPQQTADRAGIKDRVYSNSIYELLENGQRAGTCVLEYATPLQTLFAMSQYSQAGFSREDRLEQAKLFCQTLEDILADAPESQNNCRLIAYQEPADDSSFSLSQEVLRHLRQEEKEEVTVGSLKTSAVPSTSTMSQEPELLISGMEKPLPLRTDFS
- test: STING reporter assay: THP1-Dual KO-IFNAR2 cells stimulated with 2′3′cGAMP, luciferase reporter activity
- test-conditions: 15 μM 2′3′cGAMP transfected with Lipofectamine 2000, 24 h, luciferase reporter (QUANTI-Luc)
pEC50: −log10 of the molar value.
test-readout: pEC50

## Task pEC50 for CC(c1ccc(C(F)(F)F)cc1)n1cc(C(=O)Nc2c[nH]c3cc(F)c(F)cc23)cn1 (single isomer, unassigned) ?
## Result 6.00 to 6.70

## Task pEC50 for Cn1nc(C(=O)Nc2c[nH]c3cc(F)c(F)cc23)cc1Cc1ccc(C(F)(F)F)cc1 ?
## Result 6.00 to 6.70

## Task pEC50 for Cc1cncc2c(NC(=O)c3cnn(Cc4ccc(C(F)(F)F)cc4)c3)c[nH]c12 ?
## Result 5.30 to 6.00

## Task pEC50 for O=C(Nc1c[nH]c2cc(F)ccc12)c1cn(Cc2ccc(C(F)(F)F)cc2)cn1 ?
## Result 6.00 to 6.70

## Task pEC50 for O=C(Nc1c[nH]c2cc(F)c(F)cc12)c1csc(-c2ccccc2)n1 ?
## Result 5.30 to 6.00

## Task pEC50 for CC(C)(O)CCc1ncc(-n2cc(C(=O)Nc3c[nH]c4cc(F)c(F)cc34)nn2)cc1F ?
## Result 4.00 to 5.30

## Task pEC50 for N#Cc1cccc(-c2cc(C(=O)Nc3c[nH]c4cc(F)c(F)cc34)no2)c1 ?
## Result 6.00 to 6.70

## Task pEC50 for COc1ccc2[nH]cc(NC(=O)c3ccn(Cc4ccc(C(F)(F)F)cc4)n3)c2n1 ?
## Result 5.30 to 6.00

====

- system-name: hSTING (Homo sapiens, UniProt Q86WV6, G230A/H232R/R293Q/R71H)
- test: STING reporter assay: THP1-Dual KO-IFNAR2 cells stimulated with 2′3′cGAMP, luciferase reporter activity
- test-conditions: 15 μM 2′3′cGAMP transfected with Lipofectamine 2000, 24 h, luciferase reporter (QUANTI-Luc)
pEC50: −log10 of the molar value.
test-readout: pEC50

## Task pEC50 for O=C(Nc1c[nH]c2cc(F)c(F)cc12)c1csc(-c2ccc(OC(F)(F)F)cc2)n1 ?
## Result 5.30 to 6.00

## Task pEC50 for O=C(Nc1c[nH]c2cc(Cl)ccc12)c1cnn(Cc2ccc(C(F)(F)F)cc2)c1 ?
## Result 6.00 to 6.70

## Task pEC50 for O=C(Nc1c[nH]c2ccccc12)c1cn(Cc2ccc(C(F)(F)F)cn2)cn1 ?
## Result 5.30 to 6.00

## Task pEC50 for COc1cncc2c(NC(=O)c3cnn(Cc4ccc(C(F)(F)F)cc4)c3)c[nH]c12 ?
## Result 4.00 to 5.30

## Task pEC50 for O=C(Nc1c[nH]c2cc(F)c(F)cc12)c1nn(Cc2ccc(C(F)(F)F)cc2)c(=O)[nH]1 ?
## Result 5.30 to 6.00

## Task pEC50 for O=C(Nc1c[nH]c2cc(F)c(F)cc12)c1csc(-c2cccc(C(F)(F)F)c2)n1 ?
## Result 6.00 to 6.70

## Task pEC50 for Cc1cc(C(=O)Nc2c[nH]c3cc(F)c(F)cc23)nn1C1CCCCC1 ?
## Result 4.00 to 5.30
